Measured IC50, listed per entry for reference.
- Test system: protein-protein interaction between Kras and SOS1 (biotin-tagged human Kras loaded with GDP, His-tagged human SOS1) (Homo sapiens (Human), UniProt P01116, G12D)
- Test: Protein-protein interaction inhibition between Kras and SOS1 (KrasG12D-SOS PPI) using AlphaScreen;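 also: kras produced in E. coli, Ni-coupled donor beads and streptavidin acceptor beads, excitation 680 nm with emission detected at 520–620 nm via singlet oxygen transfer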
- Format: biochemical
- Condition: AlphaScreen; biotin-tagged human Kras loaded with GDP, His-tagged human SOS1; read-out: KRAS G12D-SOS PPI IC50
Bridge positions count the residues as written; N and C are the ends. Square brackets hold non-standard residues; d marks the D form. Peptide text beside a SMILES is read from it. * marks the point of attachment. hPhe(3-Cl-4-CF3) = N[C@@H](CCc1ccc(C(F)(F)F)c(Cl)c1)C(=O)O; NMePhe(4-CF3) = CN[C@@H](Cc1ccc(C(F)(F)F)cc1)C(=O)O; NMeGly(cPent) = CN[C@H](C(=O)O)C1CCCC1; NMeCha = CN[C@@H](CC1CCCCC1)C(=O)O; NMeD = CN[C@@H](CC(=O)O)C(=O)O; NMeL = CN[C@@H](CC(C)C)C(=O)O; NMeV = CN[C@H](C(=O)O)C(C)C; dPip = O=C(O)[C@H]1CCCCN1; NMeA = CN[C@@H](C)C(=O)O; Piperidide = C1CCN(*)CC1; Pyrrolidide = C1CCN(*)C1; Ac5c = NC1(C(=O)O)CCCC1; Aze = O=C(O)[C@@H]1CCN1; Sar = CNCC(=O)O
Just the number in nM, nothing appended.

CC[C@H](C)[C@@H]1NC(=O)[C@H](C)N(C)C(=O)C[C@@H](C(=O)N2CCCCC2)N(C)C(=O)[C@H](C(C)C)N(C)C(=O)C2(CCCC2)NC(=O)[C@@H]2CCCN2C(=O)[C@H](CCc2ccc(C(F)(F)F)c(Cl)c2)NC(=O)[C@H]2CCCCN2C(=O)[C@H](CC2CCCCC2)N(C)C(=O)[C@@H]2CCCN2C(=O)CN(C)C1=O [Compound 823] ([NMeA]I[Sar]P[NMeCha][dPip][hPhe(3-Cl-4-CF3)]P[Ac5c][NMeV][NMeD]-Piperidide; lactam N-11)	16

Consider the additional compound presented here.
The compound identified as CC[C@H](C)[C@@H]1NC(=O)[C@H](CC(C)C)N(C)C(=O)C[C@@H](C(=O)N2CCCC2)N(C)C(=O)[C@H](C2CCCC2)N(C)C(=O)C2(CCCC2)NC(=O)[C@@H]2CCCN2C(=O)[C@H](CCc2ccc(C(F)(F)F)c(Cl)c2)NC(=O)CN(C)C(=O)[C@H](Cc2ccc(C(F)(F)F)cc2)N(C)C(=O)[C@@H]2CCN2C(=O)[C@H](C)N(C)C1=O [Compound 589] ([NMeL]I[NMeA][Aze][NMePhe(4-CF3)][Sar][hPhe(3-Cl-4-CF3)]P[Ac5c][NMeGly(cPent)][NMeD]-Pyrrolidide; lactam N-11) registered its IC50 at 0.49
